Target: Cytochrome P450 2D6 (Homo sapiens, UniProt P10635)
Sequence (P10635 whole entry): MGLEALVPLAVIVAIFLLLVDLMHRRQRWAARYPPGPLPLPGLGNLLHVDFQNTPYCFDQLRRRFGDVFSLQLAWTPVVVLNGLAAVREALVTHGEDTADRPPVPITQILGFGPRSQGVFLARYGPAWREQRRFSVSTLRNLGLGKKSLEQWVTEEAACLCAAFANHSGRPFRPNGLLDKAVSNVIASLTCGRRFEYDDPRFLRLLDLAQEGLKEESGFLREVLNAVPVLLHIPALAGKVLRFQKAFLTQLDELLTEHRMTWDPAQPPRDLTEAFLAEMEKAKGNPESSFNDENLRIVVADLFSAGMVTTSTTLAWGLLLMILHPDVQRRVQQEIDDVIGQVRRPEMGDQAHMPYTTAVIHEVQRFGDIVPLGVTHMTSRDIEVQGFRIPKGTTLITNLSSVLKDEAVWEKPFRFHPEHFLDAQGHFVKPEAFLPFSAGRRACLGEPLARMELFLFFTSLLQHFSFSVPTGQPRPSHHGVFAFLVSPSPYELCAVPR
readout: Ki

Query: Entry under review: `CC(C)(C)NC(=O)c1ccc(Oc2cc(F)c(CC(=O)O)cc2Cl)c(NS(=O)(=O)c2ccc(C3CC3)cc2Cl)c1` . Reported Ki?
Response: > 30 µM

----------
Test system: CYP2B6
Experiment: Upregulation of CYP2B6 mRNA expression in human hepatocytes at 0.3 to 30 uM treated every 24 hrs for 2 days measured on day 5 relative to control
Assay type: ADME, cell-based, Hepatocyte
Conditions: read-out: FC
readout: fold induction at 48 h, up to 30 µM
Lab note: record just the number, no unit beside it.

Query: Entry under review: CC(C)(C)NC(=O)c1ccc(Oc2cc(F)c(CC(=O)O)cc2Cl)c(NS(=O)(=O)c2ccc(C3CC3)cc2Cl)c1 [VIDUPIPRANT] . Reported fold induction at 48 h, up to 30 µM?
Response: 1.7

----------
Molecular target: UniProtKB P08684
Sequence (P08684 whole entry): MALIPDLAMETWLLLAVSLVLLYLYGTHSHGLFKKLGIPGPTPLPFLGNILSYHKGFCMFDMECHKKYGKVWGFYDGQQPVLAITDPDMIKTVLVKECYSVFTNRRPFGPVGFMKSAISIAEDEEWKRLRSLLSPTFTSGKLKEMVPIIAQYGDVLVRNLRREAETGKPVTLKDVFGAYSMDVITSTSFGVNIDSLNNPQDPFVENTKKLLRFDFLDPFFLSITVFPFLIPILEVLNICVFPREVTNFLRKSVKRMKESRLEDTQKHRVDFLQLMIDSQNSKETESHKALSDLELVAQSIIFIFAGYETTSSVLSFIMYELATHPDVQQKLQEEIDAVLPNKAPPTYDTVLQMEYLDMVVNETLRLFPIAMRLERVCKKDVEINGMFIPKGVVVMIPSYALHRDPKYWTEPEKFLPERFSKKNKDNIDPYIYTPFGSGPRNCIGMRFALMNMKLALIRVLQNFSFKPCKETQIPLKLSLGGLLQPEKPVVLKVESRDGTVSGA
Assay: Inhibition of CYP3A4 in human liver microsomes using testosterone as substrate after 5 to 30 mins by LC-MS/MS analysis
Format: ADME
pIC50: −log10 of the molar value.
readout: pIC50

Query: Entry under review: `CC(C)(C)NC(=O)c1ccc(Oc2cc(F)c(CC(=O)O)cc2Cl)c(NS(=O)(=O)c2ccc(C3CC3)cc2Cl)c1` . Reported pIC50?
Response: ≤ 4.52

----------
Test system: CYP1A2
Assay: Upregulation of CYP1A2 mRNA expression in human hepatocytes at 0.3 to 30 uM treated every 24 hrs for 2 days measured on day 5 relative to control
Type: ADME, cell-based, Hepatocyte
Details: read-out: FC
readout: fold induction at 48 h, up to 30 µM
Lab note: record just the number, no unit beside it.

Query: Entry under review: `CC(C)(C)NC(=O)c1ccc(Oc2cc(F)c(CC(=O)O)cc2Cl)c(NS(=O)(=O)c2ccc(C3CC3)cc2Cl)c1` . Reported fold induction at 48 h, up to 30 µM?
Response: 1.7

----------
Molecular target: Cytochrome P450 2C8 (Homo sapiens, UniProt P10632)
Sequence (P10632 whole entry): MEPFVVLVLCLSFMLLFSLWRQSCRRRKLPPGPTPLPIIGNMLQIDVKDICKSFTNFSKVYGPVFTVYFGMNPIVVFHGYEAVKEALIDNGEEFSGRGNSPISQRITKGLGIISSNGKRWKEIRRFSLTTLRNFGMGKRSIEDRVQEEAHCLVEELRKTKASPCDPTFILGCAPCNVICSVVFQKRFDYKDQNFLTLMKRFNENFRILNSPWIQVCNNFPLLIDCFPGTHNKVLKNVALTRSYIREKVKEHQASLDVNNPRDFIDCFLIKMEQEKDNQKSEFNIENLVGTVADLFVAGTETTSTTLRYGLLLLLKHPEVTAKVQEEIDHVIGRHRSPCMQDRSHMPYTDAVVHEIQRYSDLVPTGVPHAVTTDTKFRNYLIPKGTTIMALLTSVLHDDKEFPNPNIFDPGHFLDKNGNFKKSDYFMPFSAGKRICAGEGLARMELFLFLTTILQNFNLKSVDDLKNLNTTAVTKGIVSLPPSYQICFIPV
Assay: Competitive inhibition of CYP2C8 in human liver microsomes assessed as paclitaxel 6-hydroxylation after 20 mins by LC-MS/MS analysis
Type: ADME
readout: Ki (nM)
Note: unit nM is implicit; provide only the numeric part.

Query: Entry under review: `CC(C)(C)NC(=O)c1ccc(Oc2cc(F)c(CC(=O)O)cc2Cl)c(NS(=O)(=O)c2ccc(C3CC3)cc2Cl)c1` . Reported Ki?
Response: 1100

----------
Molecular target: UniProtKB P11712
Test: Induction of CYP2C9 in human hepatocytes using diclofenac as substrate at 0.3 to 30 uM treated every 24 hrs for 2 days measured on day 5 by LC-MS/MS analysis relative to control
Format: ADME, cell-based, Hepatocyte
Settings: probe diclofenac, read-out: FC
readout: fold induction at 48 h, up to 30 µM
Lab note: record just the number, no unit beside it.

Query: Entry under review: `CC(C)(C)NC(=O)c1ccc(Oc2cc(F)c(CC(=O)O)cc2Cl)c(NS(=O)(=O)c2ccc(C3CC3)cc2Cl)c1` . Reported fold induction at 48 h, up to 30 µM?
Response: 1.4

----------
Tested on: CYP2C9
Experiment: Upregulation of CYP2C9 mRNA expression in human hepatocytes at 0.3 to 30 uM treated every 24 hrs for 2 days measured on day 5 relative to control
Format: ADME, cell-based, Hepatocyte
Settings: read-out: FC
readout: fold induction at 48 h, up to 30 µM

Query: Entry under review: `CC(C)(C)NC(=O)c1ccc(Oc2cc(F)c(CC(=O)O)cc2Cl)c(NS(=O)(=O)c2ccc(C3CC3)cc2Cl)c1` . Reported fold induction at 48 h, up to 30 µM?
Response: 1.7

----------
Target: Cytochrome P450 2B6 (Homo sapiens, UniProt P20813)
Sequence (P20813 whole entry): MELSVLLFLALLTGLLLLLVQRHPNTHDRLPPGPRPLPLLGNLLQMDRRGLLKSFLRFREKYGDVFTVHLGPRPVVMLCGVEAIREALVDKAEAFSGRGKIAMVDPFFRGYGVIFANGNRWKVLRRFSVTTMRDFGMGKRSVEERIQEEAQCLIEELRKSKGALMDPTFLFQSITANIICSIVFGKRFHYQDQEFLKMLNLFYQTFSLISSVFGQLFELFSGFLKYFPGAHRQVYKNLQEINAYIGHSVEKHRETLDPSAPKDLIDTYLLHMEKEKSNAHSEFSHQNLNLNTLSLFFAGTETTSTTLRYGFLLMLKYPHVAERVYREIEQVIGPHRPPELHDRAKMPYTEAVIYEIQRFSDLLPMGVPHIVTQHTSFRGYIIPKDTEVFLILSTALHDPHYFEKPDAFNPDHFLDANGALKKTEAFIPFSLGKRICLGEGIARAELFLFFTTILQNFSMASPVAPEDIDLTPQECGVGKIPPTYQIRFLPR
pIC50: −log10 of the molar value.
readout: pIC50

Query: Request body: readout pIC50, system Cytochrome P450 2B6 (Homo sapiens, UniProt P20813), query `CC(C)(C)NC(=O)c1ccc(Oc2cc(F)c(CC(=O)O)cc2Cl)c(NS(=O)(=O)c2ccc(C3CC3)cc2Cl)c1` . Return the value.
Response: ≤ 4.52

----------
Biological target: Cytochrome P450 2C8 (Homo sapiens, UniProt P10632)
Assay: Inhibition of recombinant CYP2C8 (unknown origin) treated with AMG 853
Assay type: ADME
readout: Ki (µM)
Note: unit µM is implicit; provide only the numeric part.

Query: Entry under review: `CC(C)(CO)NC(=O)c1ccc(Oc2cc(F)c(CC(=O)O)cc2Cl)c(NS(=O)(=O)c2ccc(C3CC3)cc2Cl)c1` . Reported Ki?
Response: 31.7

----------
Target: Cytochrome P450 2C8 (Homo sapiens)
Experiment: Linear mixed inhibition of CYP2C8 in human liver microsomes assessed as rosiglitazone demethylation after 20 mins by LC-MS/MS analysis
Format: ADME
readout: Ki (µM)
Note: unit µM is implicit; provide only the numeric part.

Query: Entry under review: `CC(C)(C)NC(=O)c1ccc(Oc2cc(F)c(CC(=O)O[C@@H]3O[C@H](C(=O)O)[C@@H](O)[C@H](O)[C@H]3O)cc2Cl)c(NS(=O)(=O)c2ccc(C3CC3)cc2Cl)c1` . Reported Ki?
Response: 6.9

----------
Target: Cytochrome P450 2C9 (Homo sapiens, UniProt P11712)
Sequence (P11712 whole entry): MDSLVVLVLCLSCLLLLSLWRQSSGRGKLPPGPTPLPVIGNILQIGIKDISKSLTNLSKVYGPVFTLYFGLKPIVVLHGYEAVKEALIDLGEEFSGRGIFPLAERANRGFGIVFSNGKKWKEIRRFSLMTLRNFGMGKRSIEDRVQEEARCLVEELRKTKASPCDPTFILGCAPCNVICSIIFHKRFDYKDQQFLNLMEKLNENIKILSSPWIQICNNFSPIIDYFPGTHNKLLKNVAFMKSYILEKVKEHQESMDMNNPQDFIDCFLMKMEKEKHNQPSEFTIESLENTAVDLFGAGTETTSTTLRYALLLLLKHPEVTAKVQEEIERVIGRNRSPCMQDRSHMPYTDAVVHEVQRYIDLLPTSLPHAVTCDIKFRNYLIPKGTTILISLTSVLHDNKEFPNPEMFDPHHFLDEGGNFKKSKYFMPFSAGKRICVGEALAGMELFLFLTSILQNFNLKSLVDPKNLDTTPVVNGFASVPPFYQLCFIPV
pIC50: −log10 of the molar value.
readout: pIC50

Query: Entry under review: `CC(C)(C)NC(=O)c1ccc(Oc2cc(F)c(CC(=O)O)cc2Cl)c(NS(=O)(=O)c2ccc(C3CC3)cc2Cl)c1` . Reported pIC50?
Response: ≤ 4.52

# credit: ChEMBL document CHEMBL3526017
